experiment: chemical genetic growth profiling, strain panel (AID 1159580);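 also: tested at 20 µM; growth read once vehicle control cultures reached saturation at 30 °C; 1 = growth at the plate median or of vehicle wells; lower values mean less growth of the strain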; conditions: S. cerevisiae deletion strains, growth OD, locus YLR357W, strain rsc2, stronger effect = lower value
Among all 5,500 compounds or so, about 2,000 (36%) were called active. Inconclusive results (about 18%) are left out. The list shows a part of the results.
Task for the reader: assign each of the following compounds its reported normalized growth.
Numbers only.

Before answering, review these 3 worked examples.
| COMPOUND | normalized growth |
| --- | --- |
| CC1(C)S[C@@H]2[C@H](NC(=O)[C@H](NC(=O)N3CCNC3=O)c3ccccc3)C(=O)N2C1C(=O)O (some centres undefined) | 0.977 |
| CCc1ccc(CCOc2ccc(CC3SC(=O)NC3=O)cc2)nc1 (centres undefined) | 1.03 |
| COC(=O)C1=COC(OC2OC(CO)C(O)C(O)C2O)C2C(C)CC(=O)C12O (centres undefined) | 0.975 |

Entry "O=C(/C=C/c1ccccc1)O[C@H]1C[C@@H](O)[C@]2(O)C=CO[C@@H](O[C@@H]3O[C@H](CO)[C@@H](O)[C@H](O)[C@H]3O)[C@H]12" ; normalized growth = 1.02
